# target: T1, human TGFβ3 (human, UniProt P10600 301-412)
# T1 sequence: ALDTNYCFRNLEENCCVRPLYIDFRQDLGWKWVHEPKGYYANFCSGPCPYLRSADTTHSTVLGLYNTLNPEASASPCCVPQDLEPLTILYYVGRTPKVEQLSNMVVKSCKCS
# experiment-summary: Biacore off-rate vs wt GC1008, 50 nM
quantity-kind: kd var/kd wt
Give bare numbers.

Check out these entries, answers already filled in.
* I54R (antibody, V domains shown, GC1008 IgG4 variant) VH: QVQLVQSGAEVKKPGSSVKVSCKASGYTFSSNVISWVRQAPGQGLEWMGGVIPRVDIANYAQRFKGRVTITADESTSTTYMELSSLRSEDTAVYYCASTLGLVLDAMDYWGQGTLVTVSS VL: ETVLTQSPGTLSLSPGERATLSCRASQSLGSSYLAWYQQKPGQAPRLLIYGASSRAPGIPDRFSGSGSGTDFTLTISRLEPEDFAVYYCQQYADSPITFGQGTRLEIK | 4.8
* Y27H (antibody, V domains shown, GC1008 IgG4 variant) VH: QVQLVQSGAEVKKPGSSVKVSCKASGHTFSSNVISWVRQAPGQGLEWMGGVIPIVDIANYAQRFKGRVTITADESTSTTYMELSSLRSEDTAVYYCASTLGLVLDAMDYWGQGTLVTVSS VL: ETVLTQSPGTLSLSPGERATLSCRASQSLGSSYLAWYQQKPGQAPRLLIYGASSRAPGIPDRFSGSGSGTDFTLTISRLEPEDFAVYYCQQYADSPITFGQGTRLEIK | 1.4
* D56V (antibody, V domains shown, GC1008 IgG4 variant) VH: QVQLVQSGAEVKKPGSSVKVSCKASGYTFSSNVISWVRQAPGQGLEWMGGVIPIVVIANYAQRFKGRVTITADESTSTTYMELSSLRSEDTAVYYCASTLGLVLDAMDYWGQGTLVTVSS VL: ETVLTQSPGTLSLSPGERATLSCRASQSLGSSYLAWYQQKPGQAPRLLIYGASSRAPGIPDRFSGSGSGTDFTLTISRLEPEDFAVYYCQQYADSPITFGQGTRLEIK | 1.3
* Y27Q (antibody, V domains shown, GC1008 IgG4 variant) VH: QVQLVQSGAEVKKPGSSVKVSCKASGQTFSSNVISWVRQAPGQGLEWMGGVIPIVDIANYAQRFKGRVTITADESTSTTYMELSSLRSEDTAVYYCASTLGLVLDAMDYWGQGTLVTVSS VL: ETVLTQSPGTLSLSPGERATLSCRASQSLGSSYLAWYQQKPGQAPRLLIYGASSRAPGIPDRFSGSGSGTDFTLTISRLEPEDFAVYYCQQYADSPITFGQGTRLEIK | 1.4
* E74L (antibody, V domains shown, GC1008 IgG4 variant) VH: QVQLVQSGAEVKKPGSSVKVSCKASGYTFSSNVISWVRQAPGQGLEWMGGVIPIVDIANYAQRFKGRVTITADLSTSTTYMELSSLRSEDTAVYYCASTLGLVLDAMDYWGQGTLVTVSS VL: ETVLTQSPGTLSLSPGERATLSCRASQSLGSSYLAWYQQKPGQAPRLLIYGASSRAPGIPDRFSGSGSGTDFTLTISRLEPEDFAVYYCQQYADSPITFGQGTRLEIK | 0.1

For each of the binders below, note its kd var/kd wt.
1. N32A (antibody, V domains shown, GC1008 IgG4 variant) VH: QVQLVQSGAEVKKPGSSVKVSCKASGYTFSSAVISWVRQAPGQGLEWMGGVIPIVDIANYAQRFKGRVTITADESTSTTYMELSSLRSEDTAVYYCASTLGLVLDAMDYWGQGTLVTVSS VL: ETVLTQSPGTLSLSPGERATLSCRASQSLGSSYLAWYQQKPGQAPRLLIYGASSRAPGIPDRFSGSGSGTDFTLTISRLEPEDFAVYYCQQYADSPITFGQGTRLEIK
2. Y27E (antibody, V domains shown, GC1008 IgG4 variant) VH: QVQLVQSGAEVKKPGSSVKVSCKASGETFSSNVISWVRQAPGQGLEWMGGVIPIVDIANYAQRFKGRVTITADESTSTTYMELSSLRSEDTAVYYCASTLGLVLDAMDYWGQGTLVTVSS VL: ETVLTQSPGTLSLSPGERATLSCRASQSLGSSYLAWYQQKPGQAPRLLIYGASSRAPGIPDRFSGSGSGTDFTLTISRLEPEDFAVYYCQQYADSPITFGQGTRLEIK
3. N32D (antibody, V domains shown, GC1008 IgG4 variant) VH: QVQLVQSGAEVKKPGSSVKVSCKASGYTFSSDVISWVRQAPGQGLEWMGGVIPIVDIANYAQRFKGRVTITADESTSTTYMELSSLRSEDTAVYYCASTLGLVLDAMDYWGQGTLVTVSS VL: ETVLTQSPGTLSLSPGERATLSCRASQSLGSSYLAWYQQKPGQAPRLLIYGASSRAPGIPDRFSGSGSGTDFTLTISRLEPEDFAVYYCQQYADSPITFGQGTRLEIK
4. G101Y (antibody, V domains shown, GC1008 IgG4 variant) VH: QVQLVQSGAEVKKPGSSVKVSCKASGYTFSSNVISWVRQAPGQGLEWMGGVIPIVDIANYAQRFKGRVTITADESTSTTYMELSSLRSEDTAVYYCASTLYLVLDAMDYWGQGTLVTVSS VL: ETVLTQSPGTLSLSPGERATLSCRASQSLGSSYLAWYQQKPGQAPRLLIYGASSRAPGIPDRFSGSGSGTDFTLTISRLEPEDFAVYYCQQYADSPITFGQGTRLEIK

1. 1.5
2. 1.1
3. 1.8
4. 2

Would you kindly share the measured kd var/kd wt for Y27L (antibody, V domains shown, GC1008 IgG4 variant) VH: QVQLVQSGAEVKKPGSSVKVSCKASGLTFSSNVISWVRQAPGQGLEWMGGVIPIVDIANYAQRFKGRVTITADESTSTTYMELSSLRSEDTAVYYCASTLGLVLDAMDYWGQGTLVTVSS VL: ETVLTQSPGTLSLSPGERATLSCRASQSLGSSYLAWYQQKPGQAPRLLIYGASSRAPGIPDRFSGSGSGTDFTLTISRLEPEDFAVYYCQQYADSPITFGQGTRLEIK ? 1.1

The origin of these recorded values is patent US20170342144A1.
